Where these numbers come from: PubChem BioAssay (EPA / NIEHS)

# Tested on: turtle Thyroid Hormone Receptor, alpha (TRa), gene 101949057
# measurement-protocol: ATG_trTRa_XSP2: Attagene TRANS-FACTORIAL Multi-Species (XSP1) HepG2 Assay for turtle Thyroid Hormone Receptor, alpha (TRa) (AID 2283834);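 note: hits raise reporter mRNA over the DMSO baseline so AC50 marks activators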
Inconclusive results are not listed. Active and inactive are the calls of the source. Rule for the calls: active = hit-call score of the fitted dose curve at least 0.9, where 1 is the maximum; inconclusive = response in the unintended direction; inactive = score below 0.9.
quantity: outcome

{"molecule": "N#Cc1ccc(C2CCCc3cncn32)cc1 (stereo not drawn)", "value-observed": "inactive"}
{"molecule": "CCCCCCCCCCCCc1ccc(O)cc1", "value-observed": "inactive"}
{"molecule": "COc1ccc(C(=O)c2ccccc2)c(O)c1", "value-observed": "inactive"}

----------
# measurement-protocol: ATG_MRE_CIS: Attagene CIS-FACTORIAL HepG2 Assay for human Metal Responsive Element (MRE) (AID 2282954)
# assay-conditions: HepG2 MRE cis-reporter transcription, Attagene multiplex; actives raise or lower the signal
# Protocol: ATG_CIS is a cell-based, multiplexed-readout assay that uses HepG2, a human liver cell line, with measurements taken at 24 hours after chemical dosing in a 24-well plate.ATG_MRE_CIS is one of 52 assay component(s) measured or calculated from the ATG_CIS assay. […] This assay endpoint, ATG_MRE_CIS, was analyzed with bidirectional fitting relative to DMSO as the negative control and baseline of activity. […]
Calls of active or inactive are those of the source. Rule for the calls: active = hit-call score of the fitted dose curve at least 0.9, where 1 is the maximum; inactive = score below 0.9.
Possible outcomes: class 1 for active, class 0 for inactive

{"given-smiles": "C=CCCCCCCCCO", "category": "class 0"}
{"given-smiles": "CCOC(=O)CC(=O)c1ccccc1", "category": "class 0"}
{"given-smiles": "CCN1CCCC1=O", "category": "class 0"}
{"given-smiles": "O=C(O[C@@H]1Cc2c(O)cc(O)cc2O[C@@H]1c1cc(O)c(O)c(O)c1)c1cc(O)c(O)c(O)c1", "category": "class 0"}
{"given-smiles": "CC1(C)[C@@H]2CC[C@@]1(C)C(=O)C2", "category": "class 0"}
{"given-smiles": "O=C(Cl)c1ccc(C(=O)Cl)cc1", "category": "class 0"}
{"given-smiles": "CC(C)(C)C1CCC(=O)CC1", "category": "class 0"}
{"given-smiles": "CC(C)CO", "category": "class 0"}
{"given-smiles": "O=C(C=Cc1ccccc1)OCCc1ccccc1", "category": "class 1"}
{"given-smiles": "C=CCOC(=O)c1ccc(C(=O)OCC=C)c(C(=O)OCC=C)c1", "category": "class 0"}
{"given-smiles": "C=C(C)C(=O)OCCCCCCCCCCCC", "category": "class 0"}
{"given-smiles": "COc1ccc(C(=O)c2ccccc2)c(O)c1", "category": "class 1"}
{"given-smiles": "CCOB(OCC)OCC", "category": "class 0"}
{"given-smiles": "O=C(Oc1ccccc1)c1ccccc1C(=O)Oc1ccccc1", "category": "class 0"}
{"given-smiles": "CCCCCC(=O)OCC", "category": "class 0"}
{"given-smiles": "O=C(O)C(F)(F)C(F)(F)C(F)(F)C(F)(F)C(=O)O", "category": "class 0"}
{"given-smiles": "C1CNCCN1", "category": "class 0"}
{"given-smiles": "CC(=O)c1ccc(S(=O)(=O)NC(=O)NC2CCCCC2)cc1", "category": "class 0"}

----------
# measured-target: Paired box protein Pax-6 (Homo sapiens) (UniProt P26367)
# Sequence (P26367 whole entry, looked up): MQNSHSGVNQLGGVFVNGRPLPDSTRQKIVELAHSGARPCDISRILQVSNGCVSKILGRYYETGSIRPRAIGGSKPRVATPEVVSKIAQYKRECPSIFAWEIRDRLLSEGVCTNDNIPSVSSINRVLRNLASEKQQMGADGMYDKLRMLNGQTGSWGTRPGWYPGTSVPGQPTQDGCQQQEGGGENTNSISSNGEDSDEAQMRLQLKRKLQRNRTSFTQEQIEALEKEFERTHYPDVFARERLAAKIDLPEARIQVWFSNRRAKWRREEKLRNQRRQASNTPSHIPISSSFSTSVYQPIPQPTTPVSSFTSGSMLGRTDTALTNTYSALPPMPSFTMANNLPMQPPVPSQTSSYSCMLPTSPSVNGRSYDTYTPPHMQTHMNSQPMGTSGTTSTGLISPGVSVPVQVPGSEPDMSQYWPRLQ
# measurement-protocol: ATG_Pax6_CIS: Attagene CIS-FACTORIAL HepG2 Assay for human Paired Box 6 (PAX6) (AID 2282956)
# assay-conditions: HepG2 CIS-FACTORIAL PAX6 reporter transcription, RNA readout; actives raise or lower the signal
# Description: ATG_CIS is a cell-based, multiplexed-readout assay that uses HepG2, a human liver cell line, with measurements taken at 24 hours after chemical dosing in a 24-well plate.ATG_Pax6_CIS is one of 52 assay component(s) measured or calculated from the ATG_CIS assay. […] This assay endpoint, ATG_Pax6_CIS, was analyzed with bidirectional fitting relative to DMSO as the negative control and baseline of activity. […]
Activity calls are given as the source filed them. Rule for the calls: active = hit-call score of the fitted dose curve at least 0.9, where 1 is the maximum; inactive = score below 0.9.
Possible outcomes: 1 for active, 0 for inactive

{"molecule": "CC(CC=O)CC(C)(C)C (configuration not stated)", "category": 0}
{"molecule": "Clc1cc(Cl)c(Cl)c(Cl)c1Cl", "category": 0}
{"molecule": "Nc1cccc(N)n1", "category": 0}
{"molecule": "Cc1noc(NS(=O)(=O)c2ccc(N)cc2)c1C", "category": 0}
{"molecule": "CC(c1cc(C(C)(C)C)cc(C(C)(C)C)c1O)c1cc(C(C)(C)C)cc(C(C)(C)C)c1O", "category": 0}
{"molecule": "CCCCCCCCCCCCCC(=O)OC(C)C", "category": 0}
{"molecule": "CC1OC(=O)C(C)OC1=O (configuration not stated)", "category": 0}
{"molecule": "CCCCCCCCCCCCCCCCCCOS(=O)(=O)O", "category": 0}
{"molecule": "CN(C)Cc1cc(CN(C)C)c(O)c(CN(C)C)c1", "category": 0}
{"molecule": "CCCCCCCCC(CO)CCCCCC (configuration not stated)", "category": 0}
{"molecule": "CC(C)CC(=O)OCc1ccccc1", "category": 0}
{"molecule": "CC1(C)CCC[C@]2(C)[C@H]3CC(=O)O[C@]3(C)CC[C@@H]12", "category": 0}
{"molecule": "O=C(Oc1ccccc1)c1ccccc1C(=O)Oc1ccccc1", "category": 0}
{"molecule": "C=C(C)C1CC=C(C)CC1 (configuration not stated)", "category": 0}
{"molecule": "CC(CC(C)C)=NO", "category": 0}
{"molecule": "c1ccc(Nc2cccc3ccccc23)cc1", "category": 1}
{"molecule": "CCC1(C)C(=O)N(Cl)C(=O)N1Cl (configuration not stated)", "category": 1}
{"molecule": "CC1=CC(C)C(C=O)CC1 (configuration not stated)", "category": 0}
{"molecule": "C[Si]1(C)O[Si](C)(C)O[Si](C)(C)O[Si](C)(C)O[Si](C)(C)O1", "category": 0}
{"molecule": "CCC(=O)C1CC(C(C)C)CC=C1C (configuration not stated)", "category": 0}
{"molecule": "C=CC(=O)NCOCCCC", "category": 0}
{"molecule": "CC(C)OC(=O)c1ccccc1", "category": 0}
{"molecule": "NNS(=O)(=O)c1ccc(Oc2ccc(S(=O)(=O)NN)cc2)cc1", "category": 0}
{"molecule": "CCCCCCCCCC[N+](C)(CCCCCCCCCC)CCC[Si](OC)(OC)OC", "category": 0}
{"molecule": "CCCC=C(C=O)CC", "category": 0}
{"molecule": "C[Si](C)(C)N[Si](C)(C)C", "category": 0}
{"molecule": "C=CCNCC=C", "category": 0}
